- System Tested: Nuclear receptor ROR-gamma (Homo sapiens)
- Experiment Notes: Inverse agonist activity at GAL4-RORgammat LBD (unknown origin) expressed in HEK293 cells measured after 18 to 24 hrs by nuclear receptor assay
- Assay type: cell-based
Test Readout: IC50 (nM)
The answer is to be given in nM; state only the numeric part.

Lookup: Which measured IC50 value corresponds to Cc1ccc([C@H](NC(=O)Cc2ccc3oc([C@@H](O)c4c(C)noc4C)cc3c2)c2ccccc2)c(C)c1 ?
Found: 17

* * *

- System Tested: UniProtKB P51449
- Experiment Notes: Inverse agonist activity at His-tagged human RORgammat LBD assessed as inhibition of biotinylated RIP140 co-activator peptide binding incubated for 1 hr by TR-FRET assay
Test Readout: pIC50
Schema: pIC50 number; meaning minus log10 of the concentration expressed in molar units.

Lookup: Which measured pIC50 value corresponds to Cc1ncc(C(=O)Nc2cn3ccnc3c(CN3CCN(C(=O)C4CCCC4)[C@@H](C)C3)c2C)cn1 ?
Found: 7.89

* * *

- Experiment Notes: Half life in dog
- Assay type: ADME, Canis lupus familiaris
- Experimental Setup: in vivo
Test Readout: half-life

Lookup: Which measured half-life value corresponds to CCS(=O)(=O)c1ccc(CNC(=O)c2cnc3c(c2)CN(C[C@H]2CC[C@H](C(F)(F)F)CC2)[C@H]3C(C)C)nc1 ?
Found: 15 h

* * *

- System Tested: Nuclear receptor ROR-gamma (Homo sapiens, UniProt P51449)
- Experiment Notes: Inverse agonist activity at human GAL4-RORgamma […] expressed in HEK293 cells measured after 24 hrs by ligand binding assay
- Type: cell-based
Let's look at some compounds and their measured IC50.

# Compound, Assay Result
measured = [
    ("O=C(O)CC1CN(Cc2ccc(-c3ccc(C(O)(C(F)(F)F)C(F)(F)F)cc3)cc2)CCN1Cc1ccncc1 (configuration not stated)", "> 10 µM"),
]

Then there is this compound:
Lookup: Which measured IC50 value corresponds to CCOC(=O)CC1CN(Cc2ccc(-c3ccc(C(O)(C(F)(F)F)C(F)(F)F)cc3)cc2)CCN1Cc1ccncc1 (configuration not stated) ?
Found: < 1 µM

* * *

- System Tested: Nuclear receptor ROR-gamma (Homo sapiens, UniProt P51449)
- Experiment Notes: Inhibition of GAL4-RORgammat LBD (unknown origin)
- Type: cell-based, HEK293
pIC50: −log10 of the molar value.
Test Readout: pIC50

Lookup: Which measured pIC50 value corresponds to Cc1cc(C(F)(F)F)cc2c1cc(Cc1c(Cl)ccc(C(=O)N3CCN(C4COC4)CC3)c1Cl)n2C ?
Found: > 7.00

* * *

- Species: Homo sapiens
- Experiment Notes: tissue or blood
- Description: Inhibition of IL-17A secretion in healthy human whole blood
Test Readout: IC50 (µM)
The answer is to be given in µM; state only the numeric part.

Lookup: Which measured IC50 value corresponds to CCS(=O)(=O)c1ccc(CNC(=O)c2cnc3c(c2)CN(C[C@H]2CC[C@H](C(F)(F)F)CC2)[C@H]3C(C)C)nc1 ?
Found: 0.207

* * *

- System Tested: Nuclear receptor ROR-gamma (Homo sapiens, UniProt P51449)
- Experiment Notes: Inhibition of human RORgammat expressed in COS7 cells by luciferase assay
- Type: cell-based
Let's look at some compounds and their measured IC50.
The answer is to be given in nM; state only the numeric part.

# Input Smiles, IC50 [nM]
rows = [
    ("Cc1ncc(C(=O)Nc2cc(F)cc(CN3CCN(C(=O)C4CCCC4)[C@@H](C)C3)c2C)cn1", 97),
]

Then there is this compound:
Lookup: Which measured IC50 value corresponds to CCS(=O)(=O)c1ccc(CC(=O)Nc2cc(Cl)c(C3(c4noc(-c5ccc(F)cc5)n4)CC3)c(Cl)c2)cc1 ?
Found: 2.1

* * *

- Organism: Homo sapiens
- Experiment Notes: Inhibition of IL-17 production in human whole blood measured after 72 hrs by ELISA
- Format: functional
Test Readout: IC50 (nM)
The answer is to be given in nM; state only the numeric part.

Lookup: Which measured IC50 value corresponds to Cc1ncc(C(=O)Nc2cn3ccnc3c(CN3CCN(C(=O)C4CCCC4)[C@@H](C)C3)c2C)cn1 ?
Found: 168

* * *

- Experiment Notes: Half life in rat
- Type: ADME
- Experimental Setup: in vivo
Test Readout: half-life
Please report the result as a number followed by the unit.

Lookup: Which measured half-life value corresponds to CCS(=O)(=O)c1ccc(CNC(=O)c2cnc3c(c2)CN(C[C@H]2CC[C@H](C(F)(F)F)CC2)[C@H]3C(C)C)nc1 ?
Found: 360 min

* * *

- System Tested: Nuclear receptor ROR-gamma (Homo sapiens)
- Experiment Notes: Inhibition of transactivation of Gal4-tagged RORgamma (unknown origin) transfected in human HG5LN cells incubated for 18 hrs by luciferase reporter gene assay
- Format: cell-based
Test Readout: pIC50
Schema: pIC50 number; meaning minus log10 of the concentration expressed in molar units.

Lookup: Which measured pIC50 value corresponds to Cc1ccc(N(CC(C)C)S(=O)(=O)c2ccc3c(c2)[nH]c(=O)n3CC2CCOCC2)c(C)c1 ?
Found: 7.72

* * *

Let's look at some compounds and their measured IC50.
- System Tested: Nuclear receptor ROR-gamma (Homo sapiens, UniProt P51449)
- Experiment Notes: Inhibition of human GAL4-fused RORgamma LBD transfected in HEK293T cell measured after 24 hrs by luciferase reporter assay
- Assay type: cell-based
The answer is to be given in nM; state only the numeric part.

Known IC50 results, listed for orientation:
# Compound, System Tested, Assay Result
data = [
    ("COC(=O)[C@]12CCC(C)(C)CC1C1C(=O)C=C3[C@@]4(C)C=C(C#N)C(=O)[C@@](C)(O)[C@@H]4CC[C@@]3(C)[C@]1(C)CC2 (stereo partly drawn)", "Nuclear receptor ROR-gamma (Homo sapiens, UniProt P51449)", 115),
    ("CCS(=O)(=O)c1ccc(CNc2nc3c(C)nc(-c4c(C)ncnc4C4CC4)nc3n([C@@H](C)C3CC3)c2=O)nc1", "Nuclear receptor ROR-gamma (Homo sapiens, UniProt P51449)", 60),
]

Then there is this compound:
Lookup: Please state recorded IC50 (tested on Nuclear receptor ROR-gamma (Homo sapiens, UniProt P51449)) of Cc1cnccc1-c1nc(-c2ccccc2)c2c(n1)[C@]1(C)C=C(C#N)C(=O)[C@H](C)[C@H]1CC2
Found: 40

* * *

- System Tested: Nuclear receptor ROR-gamma (Homo sapiens)
- Sequence (P51449 whole entry): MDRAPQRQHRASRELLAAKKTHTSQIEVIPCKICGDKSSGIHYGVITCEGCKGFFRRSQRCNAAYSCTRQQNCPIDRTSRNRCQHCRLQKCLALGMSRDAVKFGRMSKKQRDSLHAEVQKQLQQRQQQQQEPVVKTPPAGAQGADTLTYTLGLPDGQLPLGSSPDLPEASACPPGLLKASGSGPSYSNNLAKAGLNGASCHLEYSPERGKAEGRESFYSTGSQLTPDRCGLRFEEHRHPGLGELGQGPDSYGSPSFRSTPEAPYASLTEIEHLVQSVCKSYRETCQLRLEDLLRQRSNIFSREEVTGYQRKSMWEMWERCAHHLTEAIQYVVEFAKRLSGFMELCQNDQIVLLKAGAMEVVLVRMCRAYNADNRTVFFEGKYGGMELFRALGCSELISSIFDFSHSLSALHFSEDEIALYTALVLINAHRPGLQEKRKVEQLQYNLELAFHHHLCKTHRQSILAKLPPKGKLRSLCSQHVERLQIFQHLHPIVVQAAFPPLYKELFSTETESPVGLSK
- Experiment Notes: Antagonist activity at RORgammat LBD (unknown origin) assessed as fluorescent polarization signal measured in presence of fluorescein-labeled LXR agonist T0901317 after 4 hrs by competitive binding assay
Test Readout: pIC50
Schema: pIC50 number; meaning minus log10 of the concentration expressed in molar units.

Lookup: Which measured pIC50 value corresponds to C[C@H]1CN(Cc2cncc(NS(=O)(=O)c3c(Cl)cc(Cl)cc3Cl)c2)CCN1C(=O)C1CCCC1 ?
Found: 7.05

* * *

Let's look at some compounds and their measured bioavailability.
- Experiment Notes: Oral bioavailability in rat
- Assay type: ADME, organism-based
- Experimental Setup: in vivo
The answer is to be given in %; state only the numeric part.

Known bioavailability results, listed for orientation:
# Input Smiles, Measurement Unit, Assay Result
data = [
    ("CC(=O)N1Cc2cc(S(C)(=O)=O)ccc2[C@@H]1C(=O)Nc1ccc(C(O)(C(F)(F)F)C(F)(F)F)cc1", "%", 34),
    ("Cc1ncc(C(=O)Nc2cn3ccnc3c(CN3CCN(C(=O)C4CCCC4)[C@@H](C)C3)c2C)cn1", "%", 23),
]

Then there is this compound:
Lookup: Which measured bioavailability value corresponds to CCS(=O)(=O)c1ccc(CNC(=O)c2cnc3c(c2)CN(C[C@H]2CC[C@H](C(F)(F)F)CC2)[C@H]3C(C)C)nc1 ?
Found: 64

* * *

- Experiment Notes: Oral bioavailability in mouse
- Format: ADME, organism-based
- Experimental Setup: in vivo
Test Readout: bioavailability (%)
The answer is to be given in %; state only the numeric part.

Lookup: Which measured bioavailability value corresponds to COc1ccc2c(n1)CCN(C(=O)[C@H]1C[C@@H](CC(=O)O)C1)[C@H]2C(=O)Nc1cc(F)c2c(c1)CCC2(C)C ?
Found: 96

Numbers sourced from ChEMBL document CHEMBL5260836.
